# Target or test system: GABA-A receptor; alpha-1/beta-3/gamma-2 (Homo sapiens, UniProt P14867+P18507+P28472)
# Sequence (P14867 whole entry): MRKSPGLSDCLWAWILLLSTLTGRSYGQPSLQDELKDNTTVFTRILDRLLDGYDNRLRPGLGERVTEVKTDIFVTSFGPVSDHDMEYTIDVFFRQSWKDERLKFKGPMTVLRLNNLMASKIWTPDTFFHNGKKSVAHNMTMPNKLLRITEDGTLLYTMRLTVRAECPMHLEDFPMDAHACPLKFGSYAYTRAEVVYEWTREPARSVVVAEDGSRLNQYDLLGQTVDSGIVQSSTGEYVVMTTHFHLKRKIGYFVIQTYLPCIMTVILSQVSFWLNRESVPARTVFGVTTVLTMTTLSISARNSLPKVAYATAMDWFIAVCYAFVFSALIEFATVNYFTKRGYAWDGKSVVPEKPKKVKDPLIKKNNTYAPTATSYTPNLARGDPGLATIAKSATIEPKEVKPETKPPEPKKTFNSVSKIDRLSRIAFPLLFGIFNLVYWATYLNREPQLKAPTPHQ
# Sequence (P18507 whole entry): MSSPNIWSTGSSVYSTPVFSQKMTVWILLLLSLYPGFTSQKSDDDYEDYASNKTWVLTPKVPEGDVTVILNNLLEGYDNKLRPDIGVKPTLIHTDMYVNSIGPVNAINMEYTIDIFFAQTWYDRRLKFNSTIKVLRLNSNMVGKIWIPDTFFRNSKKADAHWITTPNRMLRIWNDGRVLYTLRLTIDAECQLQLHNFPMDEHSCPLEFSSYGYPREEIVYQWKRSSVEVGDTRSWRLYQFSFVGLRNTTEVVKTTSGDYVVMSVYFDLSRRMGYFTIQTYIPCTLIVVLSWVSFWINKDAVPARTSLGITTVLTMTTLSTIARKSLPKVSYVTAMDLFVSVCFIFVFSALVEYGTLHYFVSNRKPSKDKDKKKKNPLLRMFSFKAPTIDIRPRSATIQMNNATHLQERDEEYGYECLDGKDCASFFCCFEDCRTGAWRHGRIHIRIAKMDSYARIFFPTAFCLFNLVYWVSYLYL
# Sequence (P28472 whole entry): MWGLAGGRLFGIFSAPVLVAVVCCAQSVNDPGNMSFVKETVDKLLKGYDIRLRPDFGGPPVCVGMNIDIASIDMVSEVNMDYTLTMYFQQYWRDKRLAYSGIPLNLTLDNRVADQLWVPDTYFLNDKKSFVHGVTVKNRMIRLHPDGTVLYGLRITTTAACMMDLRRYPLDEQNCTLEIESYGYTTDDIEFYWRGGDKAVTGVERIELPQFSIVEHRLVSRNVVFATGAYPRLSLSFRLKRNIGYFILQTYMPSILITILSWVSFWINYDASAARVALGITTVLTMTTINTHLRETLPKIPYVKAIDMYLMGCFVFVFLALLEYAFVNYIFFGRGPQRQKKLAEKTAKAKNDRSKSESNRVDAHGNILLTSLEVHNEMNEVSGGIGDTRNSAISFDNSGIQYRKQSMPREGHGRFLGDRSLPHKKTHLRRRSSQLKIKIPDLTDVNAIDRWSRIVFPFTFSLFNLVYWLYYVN
# Assay notes: Displacement of [3H]Ro 15-1788 from recombinant human GABA-Aalpha1 receptor plus beta-3-gamma-2 expressed in L(tk-) cells
pKi: −log10 of the molar value.
Where pKi equals or exceeds 9, the correct label is TRUE; where it does not, the label is FALSE.

Form field: pKi at least 9? Entry: Fc1cccc(-c2cc(-c3cnc4nc(C(F)(F)F)ccn34)ccn2)c1 FALSE

Form field: pKi at least 9? Entry: FC(F)(F)c1ccn2c(-c3cc(Cl)ncn3)cnc2n1 FALSE

Form field: pKi at least 9? Entry: CCO/N=C(\C)c1ccc2c(c1)ncn2-c1cccc(-c2cccnc2)c1 FALSE

Form field: pKi at least 9? Entry: N#Cc1ccccc1-c1cc(-c2cnc3nc(C(F)(F)F)ccn23)ccn1 FALSE

Form field: pKi at least 9? Entry: COc1ccccc1-c1cc(-c2cnc3nc(C(F)(F)F)ccn23)ccn1 FALSE

Form field: pKi at least 9? Entry: COc1cc(-c2cnc3nc(C(F)(F)F)ccn23)ccn1 FALSE

Form field: pKi at least 9? Entry: FC(F)(F)c1ccn2c(-c3ccccn3)cnc2n1 FALSE

Form field: pKi at least 9? Entry: N#Cc1ccccc1-c1cccc(-c2cnc3nc(C(F)(F)F)ccn23)n1 TRUE

Form field: pKi at least 9? Entry: N#Cc1ccccc1-c1ccnc(-c2cnc3nc(C(F)(F)F)ccn23)c1 FALSE

Form field: pKi at least 9? Entry: FC(F)(F)c1ccn2c(-c3cc(Cl)ccn3)cnc2n1 FALSE

Form field: pKi at least 9? Entry: N#Cc1ccccc1-c1cncc(-c2cnc3nc(C(F)(F)F)ccn23)c1 FALSE

Form field: pKi at least 9? Entry: FC(F)(F)c1cccc(-c2cnc3nc(C(F)(F)F)ccn23)n1 TRUE

Form field: pKi at least 9? Entry: N#Cc1ccccc1-c1ccnc(-c2cnc3nc(C(F)(F)F)ccn23)n1 FALSE

Form field: pKi at least 9? Entry: FC(F)(F)c1ccn2c(-c3cccc(Br)n3)cnc2n1 TRUE

Form field: pKi at least 9? Entry: Fc1ccccc1-c1cc(-c2cnc3nc(C(F)(F)F)ccn23)ccn1 FALSE

====

Provide the reported Efficacy of each item.
# Target or test system: GABA-A receptor; alpha-3/beta-3/gamma-2 (Homo sapiens) (UniProt P18507+P28472+P34903)
# Assay notes: Efficacy against recombinant human GABA-Aalpha3 receptor plus beta-3-gamma-2 as measured by modulation of chloride ion flux
# Format: functional
Report as a plain number; the unit % is understood.

Hello, please tell me recorded Efficacy for this one: FC(F)(F)c1ccn2c(-c3cccc(Br)n3)cnc2n1 2

Hello, please tell me recorded Efficacy for this one: N#Cc1ccccc1-c1cccc(-c2cnc3nc(C(F)(F)F)ccn23)n1 10

Hello, please tell me recorded Efficacy for this one: N#Cc1cc(F)ccc1-c1cc(-c2cnc3nc(C(F)(F)F)ccn23)ccn1 21

Hello, please tell me recorded Efficacy for this one: N#Cc1ccccc1-c1cc(-c2cnc3nc(C(F)(F)F)ccn23)ccn1 43

Hello, please tell me recorded Efficacy for this one: FC(F)(F)c1cccc(-c2cnc3nc(C(F)(F)F)ccn23)n1 -40

Hello, please tell me recorded Efficacy for this one: N#Cc1ccccc1-c1cncc(-c2cnc3nc(C(F)(F)F)ccn23)c1 -39

Hello, please tell me recorded Efficacy for this one: COc1cccc(-c2cnc3nc(C(F)(F)F)ccn23)n1 -9

Hello, please tell me recorded Efficacy for this one: FC(F)(F)c1ccn2c(-c3ccnc(Cl)n3)cnc2n1 -19

Hello, please tell me recorded Efficacy for this one: N#Cc1ccccc1-c1nccc(-c2cnc3nc(C(F)(F)F)ccn23)n1 -15

Hello, please tell me recorded Efficacy for this one: FC(F)(F)c1ccn2c(-c3ccccn3)cnc2n1 -7

Hello, please tell me recorded Efficacy for this one: COc1ccccc1-c1cc(-c2cnc3nc(C(F)(F)F)ccn23)ccn1 54

Hello, please tell me recorded Efficacy for this one: N#Cc1ccccc1-c1cccc(-c2cnc3nc(C(F)(F)F)ccn23)c1 53

Hello, please tell me recorded Efficacy for this one: Fc1ccccc1-c1cc(-c2cnc3nc(C(F)(F)F)ccn23)ccn1 23

====

Provide the reported pKi of each item.
# Target or test system: GABA-A receptor; alpha-3/beta-3/gamma-2 (Homo sapiens, UniProt P18507+P28472+P34903)
# Sequence (P18507 whole entry): as the sequence (P18507 whole entry) above
# Sequence (P28472 whole entry): as the sequence (P28472 whole entry) above
# Sequence (P34903 whole entry): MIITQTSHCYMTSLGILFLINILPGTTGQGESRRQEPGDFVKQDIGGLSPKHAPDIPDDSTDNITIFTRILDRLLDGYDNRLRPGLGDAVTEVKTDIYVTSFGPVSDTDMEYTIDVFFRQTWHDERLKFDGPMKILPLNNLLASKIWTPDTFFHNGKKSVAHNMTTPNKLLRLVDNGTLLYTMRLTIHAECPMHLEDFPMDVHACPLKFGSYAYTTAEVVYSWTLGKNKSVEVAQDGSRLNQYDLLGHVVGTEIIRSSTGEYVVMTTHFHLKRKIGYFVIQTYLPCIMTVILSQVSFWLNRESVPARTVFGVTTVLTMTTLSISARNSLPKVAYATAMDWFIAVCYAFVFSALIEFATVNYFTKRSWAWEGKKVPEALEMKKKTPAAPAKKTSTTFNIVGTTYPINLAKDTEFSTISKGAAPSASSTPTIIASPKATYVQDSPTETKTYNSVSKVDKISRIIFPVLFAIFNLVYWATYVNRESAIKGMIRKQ
# Assay notes: Displacement of [3H]Ro 15-1788 from recombinant human GABA-Aalpha3 receptor plus beta-3-gamma-2 expressed in L(tk-) cells
FYI, pKi means -log10 of a concentration in mol per litre.

Hello, please tell me recorded pKi for this one: N#Cc1ccccc1-c1nccc(-c2cnc3nc(C(F)(F)F)ccn23)n1 8.85

Hello, please tell me recorded pKi for this one: FC(F)(F)c1cccc(-c2cnc3nc(C(F)(F)F)ccn23)n1 9.06

Hello, please tell me recorded pKi for this one: N#Cc1ccccc1-c1cc(-c2cnc3nc(C(F)(F)F)ccn23)ccn1 8.54

Hello, please tell me recorded pKi for this one: FC(F)(F)c1ccn2c(-c3cccc(Br)n3)cnc2n1 9.17

====

# Target or test system: GABA-A receptor; alpha-1/beta-3/gamma-2 (Homo sapiens) (UniProt P14867+P18507+P28472)
# Assay notes: Efficacy against recombinant human GABA-Aalpha1 receptor plus beta-3-gamma-2 as measured by modulation of chloride ion flux
# Assay type: functional
Provide the reported Efficacy of each item.

Hello, please tell me recorded Efficacy for this one: FC(F)(F)c1ccn2c(-c3cccc(Br)n3)cnc2n1 11%

Hello, please tell me recorded Efficacy for this one: COc1cccc(-c2cnc3nc(C(F)(F)F)ccn23)n1 -22%

Hello, please tell me recorded Efficacy for this one: N#Cc1cc(F)ccc1-c1cc(-c2cnc3nc(C(F)(F)F)ccn23)ccn1 9%

Hello, please tell me recorded Efficacy for this one: COc1ccccc1-c1cc(-c2cnc3nc(C(F)(F)F)ccn23)ccn1 35%

Hello, please tell me recorded Efficacy for this one: N#Cc1ccccc1-c1cc(-c2cnc3nc(C(F)(F)F)ccn23)ccn1 4%

Hello, please tell me recorded Efficacy for this one: FC(F)(F)c1ccn2c(-c3ccnc(Cl)n3)cnc2n1 -22%

Hello, please tell me recorded Efficacy for this one: FC(F)(F)c1cccc(-c2cnc3nc(C(F)(F)F)ccn23)n1 -24%

====

# Target or test system: GABA-A receptor; alpha-3/beta-3/gamma-2 (Homo sapiens) (UniProt P18507+P28472+P34903)
# Assay notes: Efficacy against recombinant human GABA-Aalpha3 receptor plus beta-3-gamma-2 expressed in L(tk-) cells by whole cell patch clamp method
# Assay type: functional, cell-based
Test readout: Efficacy (%)
Report as a plain number; the unit % is understood.

Report measured Efficacy on GABA-A receptor; alpha-3/beta-3/gamma-2 (Homo sapiens) (UniProt P18507+P28472+P34903); entry: FC(F)(F)c1ccn2c(-c3ccnc(Cl)n3)cnc2n1 -24.9

Report measured Efficacy on GABA-A receptor; alpha-3/beta-3/gamma-2 (Homo sapiens) (UniProt P18507+P28472+P34903); entry: N#Cc1ccccc1-c1cccc(-c2cnc3nc(C(F)(F)F)ccn23)c1 59

Report measured Efficacy on GABA-A receptor; alpha-3/beta-3/gamma-2 (Homo sapiens) (UniProt P18507+P28472+P34903); entry: N#Cc1ccccc1-c1cccc(-c2cnc3nc(C(F)(F)F)ccn23)n1 -22

Report measured Efficacy on GABA-A receptor; alpha-3/beta-3/gamma-2 (Homo sapiens) (UniProt P18507+P28472+P34903); entry: N#Cc1cc(F)ccc1-c1cc(-c2cnc3nc(C(F)(F)F)ccn23)ccn1 22

Report measured Efficacy on GABA-A receptor; alpha-3/beta-3/gamma-2 (Homo sapiens) (UniProt P18507+P28472+P34903); entry: COc1cccc(-c2cnc3nc(C(F)(F)F)ccn23)n1 -51.6

Report measured Efficacy on GABA-A receptor; alpha-3/beta-3/gamma-2 (Homo sapiens) (UniProt P18507+P28472+P34903); entry: N#Cc1ccccc1-c1cc(-c2cnc3nc(C(F)(F)F)ccn23)ccn1 45

====

# Assay notes: Metabolism in dog liver microsomes at 1 uM
Test readout: metabolized at 1 µM (%)
Report as a plain number; the unit % is understood.

Hello, please tell me recorded metabolized at 1 µM for this one: N#Cc1ccccc1-c1cccc(-c2cnc3nc(C(F)(F)F)ccn23)n1 15

Hello, please tell me recorded metabolized at 1 µM for this one: N#Cc1ccccc1-c1cccc(-c2cnc3nc(C(F)(F)F)ccn23)c1 100

Hello, please tell me recorded metabolized at 1 µM for this one: N#Cc1ccccc1-c1nccc(-c2cnc3nc(C(F)(F)F)ccn23)n1 56

Hello, please tell me recorded metabolized at 1 µM for this one: N#Cc1ccccc1-c1cc(-c2cnc3nc(C(F)(F)F)ccn23)ccn1 4

====

# Target or test system: GABA-A receptor; alpha-1/beta-3/gamma-2 (Homo sapiens, UniProt P14867+P18507+P28472)
# Assay notes: Displacement of [3H]Ro 15-1788 from recombinant human GABA-Aalpha1 receptor plus beta-3-gamma-2 expressed in L(tk-) cells
Provide the reported pKi of each item.
FYI, pKi means -log10 of a concentration in mol per litre.

Hello, please tell me recorded pKi for this one: N#Cc1ccccc1-c1nccc(-c2cnc3nc(C(F)(F)F)ccn23)n1 9.00

Hello, please tell me recorded pKi for this one: FC(F)(F)c1ccn2c(-c3ccnc(Cl)n3)cnc2n1 9.03

Hello, please tell me recorded pKi for this one: N#Cc1cc(F)ccc1-c1cc(-c2cnc3nc(C(F)(F)F)ccn23)ccn1 9.00

Hello, please tell me recorded pKi for this one: COc1cccc(-c2cnc3nc(C(F)(F)F)ccn23)n1 8.92

meta.source: ChEMBL document CHEMBL1138168
